target_desc: T1, 4H3016-AA
T1 chain: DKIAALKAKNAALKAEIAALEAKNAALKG
experiment_summary: two-hybrid library CCmax;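 note: natural log of median RNA to DNA barcode read ratio; higher means stronger binding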
details: mean of both orientations
The following binders are listed with their measured interaction score values.
value_type: interaction score

| binder | observed_measurement |
| --- | --- |
| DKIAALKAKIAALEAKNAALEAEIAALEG [4H2865-AA] | -1.4 |
| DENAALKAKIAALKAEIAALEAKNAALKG [4H1864-AA] | -1.47 |
| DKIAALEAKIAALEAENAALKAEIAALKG [4H2330-AA] | -1.44 |
| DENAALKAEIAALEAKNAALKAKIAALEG [4H1597-AA] | -1.4 |
